# TEST_METHOD_NOTES: NFAT Signaling Pathway (AID 444);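 further: carbachol stimulus at about its EC50 of 1 µM final; on the % scale 0 is the no-effect control and ±100 the full control effect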
# TEST_PARAMETERS: Jurkat NFAT-bla M1, carbachol, beta-lactamase ratio, 5 h; at 7.69 µM (top of the series) unless noted
Records with an inconclusive call do not appear. Calls of active or inactive are those of the source. The call rests on the fitted dose curve; in most records, active means well fitted curve in either direction with a large enough effect (not every such curve was filed as active); inconclusive means small, poorly fitted or top-dose-only effect, or another doubt; inactive means flat fitted curve, though single readings scatter.
Outcome codes: active, inactive

[[record]]
structure_string = "O=C1c2ccccc2C(=O)N1c1ccc(Cc2ccc(N3C(=O)c4ccccc4C3=O)cc2)cc1"
assigned_category = "inactive"

[[record]]
structure_string = "C[C@H]1CN(CCO)CCN1c1ccccc1"
assigned_category = "inactive"

[[record]]
structure_string = "O=S(=O)(O)c1ccc(-c2nnc(-c3ccccn3)nc2-c2ccc(S(=O)(=O)O)o2)o1"
assigned_category = "inactive"

[[record]]
structure_string = "CC[C@@H](CS(=O)(=O)O)[N+](=O)[O-]"
assigned_category = "inactive"

[[record]]
structure_string = "Cn1ncc2c(Cl)ncnc21"
assigned_category = "inactive"

[[record]]
structure_string = "COc1cccc2c1[C@H](CO)N1[C@H](C#N)[C@@H]3C[C@H](C(=O)O)[C@@H]([C@@H]1C2)N3C"
assigned_category = "active"

[[record]]
structure_string = "O=c1[nH]c(=O)n([C@H]2C[C@H](O)[C@H](CO)O2)cc1Br"
assigned_category = "inactive"

[[record]]
structure_string = "C[N+]1(C)CCO[C@](O)(c2ccccc2)C1"
assigned_category = "inactive"

[[record]]
structure_string = "Cc1ccc(S(=O)(=O)NC(=O)Nc2ncn[nH]2)cc1"
assigned_category = "inactive"

[[record]]
structure_string = "CNc1ncncc1-c1ccc(C(=O)N(C)C)cc1"
assigned_category = "inactive"

[[record]]
structure_string = "C[C@@H](N=C(N)N)C(=O)O"
assigned_category = "inactive"


* * *

# TEST_METHOD_NOTES: AP1 Signaling Pathway (AID 357);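 further: ME-180 reporter cells stimulated with EGF at its EC50 level; on the % scale 0 is the no-effect control and ±100 the full control effect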
# TEST_PARAMETERS: ME-180 (cervical carcinoma) AP-1-bla reporter, EGF-induced, beta-lactamase ratio, 5 h; at 7.69 µM (top of the series) unless noted
Inconclusive results are not listed. Activity calls are given as the source filed them. Calls come from the whole dose curve; as a rule, active = well fitted curve in either direction with a large enough effect (not every such curve was filed as active); inconclusive = small, poorly fitted or top-dose-only effect, or another doubt; inactive = flat fitted curve, though single readings scatter.
Known activity change, negative = inhibition of a selection of molecules
MEASUREMENT_KIND: activity change, negative = inhibition

[[record]]
structure_string = "Nc1nc(N)nc(CCCc2nc(N)nc(N)n2)n1"
measurement_kind = "activity change, negative = inhibition"
measured_value = "-5.42% (inactive)"

[[record]]
structure_string = "C[C@@]12CC[C@H]3[C@H](CC=C4C[C@@H](O)CC[C@@]43C)[C@@H]1CC[C@@H]2N(CCO)CCO"
measurement_kind = "activity change, negative = inhibition"
measured_value = "-4.05% (inactive)"

[[record]]
structure_string = "O=C(O)CNc1ccc(C(=O)O)cc1"
measurement_kind = "activity change, negative = inhibition"
measured_value = "-2.61% (inactive)"

[[record]]
structure_string = "O=C(O)c1cc2c(cc1S(=O)(=O)O)[C@H]1[C@@H]([C@H]3[C@H]2[C@@]2(Cl)C(Cl)=C(Cl)[C@]3(Cl)C2(Cl)Cl)[C@]2(Cl)C(Cl)=C(Cl)[C@@]1(Cl)C2(Cl)Cl"
measurement_kind = "activity change, negative = inhibition"
measured_value = "5.22% (inactive)"

[[record]]
structure_string = "Nc1nc(SCc2ccc([N+](=O)[O-])cc2)c2ncn([C@@H]3O[C@@H](CO)[C@@H](O)[C@H]3O)c2n1"
measurement_kind = "activity change, negative = inhibition"
measured_value = "-11.9% [at 38 µM] (inactive)"

[[record]]
structure_string = "COc1cc(-c2[o+]c3cc(O)cc(O)c3cc2O)cc(O)c1O"
measurement_kind = "activity change, negative = inhibition"
measured_value = "19.4% (inactive)"

[[record]]
structure_string = "COc1cc2c(cc1O)CC[C@@H]1[C@@H]2CC[C@@]2(C)[C@H](O)CC[C@H]12"
measurement_kind = "activity change, negative = inhibition"
measured_value = "-4.01% [at 38 µM] (inactive)"

[[record]]
structure_string = "Cc1cc2ccccc2c[n+]1CC(O)C[n+]1cc2ccccc2cc1C"
measurement_kind = "activity change, negative = inhibition"
measured_value = "-5.85% (inactive)"

[[record]]
structure_string = "O=C(O)c1ccccc1-c1ccccc1C(=O)Nc1ccc2c(c1)Cc1ccccc1-2"
measurement_kind = "activity change, negative = inhibition"
measured_value = "6.9% (inactive)"

